# glycan array binding signal (z-score) values compiled below
biological target: Fuc(a1-2)Gal; assay: glycan array binding signal (z-score within array); higher = stronger binding; conditions: glycan notation: IUPAC condensed, linker removed
Only a selection was taken, and the strongest signals are over-represented in it overall.

binder	glycan array binding signal (z-score)
RbmA (Vibrio cholerae), A0A2H4NFB8 (protein) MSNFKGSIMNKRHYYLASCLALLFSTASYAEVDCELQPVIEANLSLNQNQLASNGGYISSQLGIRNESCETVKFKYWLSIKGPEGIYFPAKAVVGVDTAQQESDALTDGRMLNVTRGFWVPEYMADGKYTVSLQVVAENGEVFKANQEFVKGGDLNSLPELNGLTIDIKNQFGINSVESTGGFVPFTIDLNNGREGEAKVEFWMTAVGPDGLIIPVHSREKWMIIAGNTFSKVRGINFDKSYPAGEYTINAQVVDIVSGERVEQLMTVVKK	0.097
SfaEH (Escherichia coli), Q1RDG5 (protein) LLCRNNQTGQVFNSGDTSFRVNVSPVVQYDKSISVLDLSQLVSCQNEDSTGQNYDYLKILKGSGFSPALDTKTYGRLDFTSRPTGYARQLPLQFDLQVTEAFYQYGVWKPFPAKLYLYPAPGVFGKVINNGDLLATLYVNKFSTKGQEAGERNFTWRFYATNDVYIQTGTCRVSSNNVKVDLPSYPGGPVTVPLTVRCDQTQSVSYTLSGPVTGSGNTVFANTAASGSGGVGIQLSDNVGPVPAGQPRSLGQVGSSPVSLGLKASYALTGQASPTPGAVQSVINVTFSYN	-0.532
